Reference source for all entries: ChEMBL document CHEMBL1142879

- Test System: M-phase inducer phosphatase 1 (Homo sapiens, UniProt P30304)
- Sequence (P30304 whole entry): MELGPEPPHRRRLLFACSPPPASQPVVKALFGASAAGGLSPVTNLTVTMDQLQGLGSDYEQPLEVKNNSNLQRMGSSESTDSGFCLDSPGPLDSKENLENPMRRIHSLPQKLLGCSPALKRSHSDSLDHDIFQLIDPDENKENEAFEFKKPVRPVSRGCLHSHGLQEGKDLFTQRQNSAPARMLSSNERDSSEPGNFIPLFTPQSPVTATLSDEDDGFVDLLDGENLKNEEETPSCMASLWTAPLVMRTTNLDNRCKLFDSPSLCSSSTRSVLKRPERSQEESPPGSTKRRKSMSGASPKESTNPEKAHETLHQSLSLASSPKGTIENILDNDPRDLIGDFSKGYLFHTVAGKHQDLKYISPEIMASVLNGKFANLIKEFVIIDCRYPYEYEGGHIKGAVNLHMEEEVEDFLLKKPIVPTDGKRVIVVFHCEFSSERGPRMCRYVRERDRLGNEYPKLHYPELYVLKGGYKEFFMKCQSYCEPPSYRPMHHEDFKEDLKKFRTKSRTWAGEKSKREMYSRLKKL
Reported IC50 values for the following compounds.
Give just the numeric value; µM need not be written.

Worked set:
CCCCCCCCCCCCCCCC1=C(CCC(=O)O)C(=O)OC1=O: 4.7
CCCCCCCCCCCCCC1=C(CCC(=O)O)C(=O)OC1=O: 8.1

Consider the record given below.
Entry under test: `CCCCCCCCCCC1=C(CCC(=O)O)C(=O)OC1=O` . Its IC50 was 44.4

====

Measured pIC50 (UniProt P30305)
Sequence (P30305 whole entry): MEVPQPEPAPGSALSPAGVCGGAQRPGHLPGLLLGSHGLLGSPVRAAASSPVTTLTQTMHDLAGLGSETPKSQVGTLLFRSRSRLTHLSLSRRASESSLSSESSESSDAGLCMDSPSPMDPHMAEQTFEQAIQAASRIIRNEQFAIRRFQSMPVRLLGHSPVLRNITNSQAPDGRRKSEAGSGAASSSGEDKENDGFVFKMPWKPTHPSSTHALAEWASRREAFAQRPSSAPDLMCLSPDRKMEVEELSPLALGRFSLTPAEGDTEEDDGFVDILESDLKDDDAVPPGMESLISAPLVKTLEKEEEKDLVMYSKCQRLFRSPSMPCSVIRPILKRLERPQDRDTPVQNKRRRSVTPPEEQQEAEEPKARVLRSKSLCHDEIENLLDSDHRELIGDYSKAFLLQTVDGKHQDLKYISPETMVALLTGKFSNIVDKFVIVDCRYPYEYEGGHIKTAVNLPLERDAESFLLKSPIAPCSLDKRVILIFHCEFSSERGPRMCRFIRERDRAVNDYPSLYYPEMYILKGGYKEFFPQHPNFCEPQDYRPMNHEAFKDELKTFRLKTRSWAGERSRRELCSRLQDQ
Scale: pIC50 equals -log10([C]), with [C] in mol/L.

Worked set:
CCCCCCCCCCC1=C(CCC(=O)O)C(=O)OC1=O: 4.26
CCCCCCCCCCCCCC1=C(CCC(=O)O)C(=O)OC1=O: 5.06

Consider the record given below.
Entry under test: `CCCCCCCC/C=C\CCCCCCCC1=C(CCC(=O)O)C(=O)OC1=O` . Its pIC50 was 5.17

====

Target chain: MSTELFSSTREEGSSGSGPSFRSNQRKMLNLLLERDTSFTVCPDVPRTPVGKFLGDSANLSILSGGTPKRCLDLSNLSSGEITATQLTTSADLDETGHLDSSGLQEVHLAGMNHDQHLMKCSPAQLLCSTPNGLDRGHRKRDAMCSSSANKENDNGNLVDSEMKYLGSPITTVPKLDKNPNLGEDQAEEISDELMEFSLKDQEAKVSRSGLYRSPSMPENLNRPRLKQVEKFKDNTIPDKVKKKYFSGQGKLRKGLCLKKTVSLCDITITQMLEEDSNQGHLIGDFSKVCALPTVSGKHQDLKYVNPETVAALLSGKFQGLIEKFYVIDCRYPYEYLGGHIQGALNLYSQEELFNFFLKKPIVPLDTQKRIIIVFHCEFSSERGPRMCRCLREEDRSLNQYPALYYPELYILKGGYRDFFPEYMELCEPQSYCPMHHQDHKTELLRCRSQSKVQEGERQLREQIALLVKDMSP
Parameter Measured: pIC50
Scale: pIC50 equals -log10([C]), with [C] in mol/L.

CCCCCCCCCCC1=C(CCC(=O)O)C(=O)OC1=O: 4.27

Consider the record given below.
Entry under test: `CCCCCCCCCCCCCCCC1=C(CCC(=O)O)C(=O)OC1=O` . Its pIC50 was 5.07
